Taken from PubChem BioAssay (Tox21).

- assay: A CellTox Green Cytotoxicity Assay to monitor cytotoxicity in HepG2 cells - 8 hour (AID 1224890); note: nearly all actives have a fitted effect of over 45% in size
- condition-info: CellTox Green fluorescence; series mostly up to 76.8 µM
Inconclusive results are not listed. Active and inactive are the calls of the source. Calls come from the whole dose curve; as a rule, active = well fitted activation curve with a large enough effect in the repeat runs; inconclusive = weak or mixed curves; inactive = flat fitted curve, though single readings scatter.
In this exercise, the only acceptable responses are active, inactive

For orientation, consider the following solved cases.
Cc1c(C(N)=O)cc([N+](=O)[O-])cc1[N+](=O)[O-] :: inactive
CCC(C)c1ccccc1O (stereo not given) :: inactive
CNCCCC12CCC(c3ccccc31)c1ccccc12 :: inactive

Which outcome was assigned to CC1=CCC(C(C)(C)O)CC1 (stereo not given) in this test? inactive

Which outcome was assigned to C[Si](C)(C)O[Si](C)(C)C in this test? inactive

Which outcome was assigned to COc1c(Cl)c(Cl)c(Cl)c(Cl)c1Cl in this test? inactive

Which outcome was assigned to CCCCCCCCCC(=O)OC in this test? inactive

Which outcome was assigned to CCC(C)OC(=O)c1ccc(O)cc1 (stereo not given) in this test? inactive

Which outcome was assigned to Oc1ccc(O)cc1 in this test? inactive

====

- assay: qHTS assay to identify small molecule antagonists of the estrogen receptor beta (ER-beta) signaling pathway - cell viability counter screen (AID 1259382);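 note: HEK293T cells carrying ER-beta-UAS-bla reporter stimulated with estradiol; nearly all actives have a fitted effect of over 55% in size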
- condition-info: ER-beta-UAS-bla HEK293T viability, CellTiter-Glo luminescence, 16 h; series mostly up to 92.4 µM
Results filed as inconclusive are left out. Calls of active or inactive are those of the source. Calls come from the whole dose curve; as a rule, active = well fitted cell-killing curve with a large enough effect in the repeat runs; inconclusive = weak or mixed curves; inactive = flat fitted curve, though single readings scatter.
measure: outcome

C=C(C)C1CC=C(C)CC1 (stereo not given) :: inactive
CCCCOCCOCCOCCO :: inactive
CC(=O)CC/C=C(\C)CCC=C(C)C :: inactive
NNc1ccc(C(=O)O)cc1 :: inactive
NC=O :: inactive

Quick check: outcome of CN(C)C(=N)N=C(N)N ? inactive

Quick check: outcome of c1ccc(Nc2ccccc2)cc1 ? inactive

Quick check: outcome of CCCCC/C=C/C=C/C=O ? inactive

Quick check: outcome of Cc1c(OCC(F)(F)F)ccnc1CS(=O)c1nc2ccccc2[nH]1 (stereo not given) ? inactive

Quick check: outcome of CC(=O)C1(C)CC2=C(CCCC2(C)C)CC1C (stereo not given) ? inactive

Quick check: outcome of Cn1cnc([N+](=O)[O-])c1Sc1ncnc2nc[nH]c12 ? inactive

====

- assay: qHTS assay to identify small molecule antagonists of the thyroid receptor (TR) signaling pathway (AID 743065); note: nearly all actives have a fitted effect of over 55% in size
- condition-info: GH3.TRE-Luc, T3-stimulated luciferase inhibition, 23.5 h; series mostly up to 70.3 µM
Inconclusive results are not listed. Active and inactive are the calls of the source. Calls follow the shape of the dose curve; as a rule, active = well fitted inhibition curve with a large enough effect in the repeat runs; inconclusive = weak or mixed curves; inactive = no such curve, though single readings can be large or run the other way.
In this exercise, the only acceptable responses are 1 (yes) for active, 0 (no) for inactive

For orientation, consider the following solved cases.
Nc1ccc(S(=O)(=O)Nc2cnc3ccccc3n2)cc1 :: 0 (no)
CCCCCCCCCC(=O)OC :: 0 (no)
Cc1[nH]c(=O)c(C#N)cc1-c1ccncc1 :: 0 (no)
NC=O :: 0 (no)

Which outcome was assigned to CC(=O)c1ccccn1 in this test? 0 (no)

Which outcome was assigned to Cc1cccc([N+](=O)[O-])c1C in this test? 0 (no)

====

- assay: qHTS RealTime-Glo MT Cell Viability Assay in HEK293 cells - 32 hour (AID 1224868); note: nearly all actives have a fitted effect of over 50% in size; note: potency is the fitted concentration of half-maximal effect
- condition-info: RealTime-Glo luminescence; series mostly up to 76.8 µM
Records with an inconclusive call do not appear. Calls of active or inactive are those of the source. Calls follow the shape of the dose curve; as a rule, active = well fitted cell-killing curve with a large enough effect in the repeat runs; inconclusive = weak or mixed curves, or effect the other way; inactive = flat fitted curve, though single readings scatter.
measure: Potency

Please review the following examples before continuing.
Cc1cccc(C(=O)O)c1 :: inactive
CCCCCCCCCCCO :: inactive
CC(C)=CCCC(C)CCO (stereo not drawn) :: inactive
c1ccc2c(c1)Oc1ccccc1S2 :: inactive
O=C=Nc1ccc(Cc2ccc(N=C=O)cc2)cc1 :: inactive
Cn1cnc([N+](=O)[O-])c1Sc1ncnc2nc[nH]c12 :: 19.4 µM (active)
O=c1oc(=O)c2cc3c(=O)oc(=O)c3cc12 :: inactive

Quick check: Potency of CCCCOCCOCCOCCO ? inactive
